System: Streptococcus pneumoniae
Assay: Antimicrobial activity against gram positive Streptococcus pneumoniae (PARK) was determined
Format: functional
Please assign no whenever MIC is at or above 0.2 µg/mL, and yes whenever it is below.

CCOP(=O)(OCC)OC1=C(C(=O)[O-])N2C(=O)[C@@H](NC(=O)COc3ccccc3)[C@H]2CC1.[Na+] | no

Prompt: hey, is MIC for N[C@@H](C(=O)N[C@@H]1C(=O)N2C(C(=O)O)=C(Cl)CC[C@H]12)c1ccccc1 [LORACARBEF ANHYDROUS] lower than 0.2 µg/mL or not?
Response: no

Prompt: hey, is MIC for CCCCOP(=O)(OCCCC)OC1=C(C(=O)[O-])N2C(=O)[C@@H](NC(=O)COc3ccccc3)[C@H]2CC1.[Na+] lower than 0.2 µg/mL or not?
Response: yes

Prompt: hey, is MIC for O=C(COc1ccccc1)N[C@@H]1C(=O)N2C(C(=O)O)=C(OP(=O)(O)O)CC[C@H]12 lower than 0.2 µg/mL or not?
Response: no

Prompt: hey, is MIC for CC1(C)S[C@@H]2[C@H](NC(=O)COc3ccccc3)C(=O)N2[C@H]1C(=O)O [PENICILLIN V] lower than 0.2 µg/mL or not?
Response: yes

Prompt: hey, is MIC for COP(=O)(OC)OC1=C(C(=O)[O-])N2C(=O)[C@@H](NC(=O)COc3ccccc3)[C@H]2CC1.[Na+] lower than 0.2 µg/mL or not?
Response: no

----------
System: Staphylococcus epidermidis
Assay: Antimicrobial activity against gram positive Staphylococcus epidermidis (222) was determined
Format: functional
PARAMETER: MIC (µg/mL)
Give just the number in µg/mL; leave the unit off.

# annotated cases, reported MIC shown
CC1(C)S[C@@H]2[C@H](NC(=O)COc3ccccc3)C(=O)N2[C@H]1C(=O)O [PENICILLIN V] | 0.125
CCCCOP(=O)(OCCCC)OC1=C(C(=O)[O-])N2C(=O)[C@@H](NC(=O)COc3ccccc3)[C@H]2CC1.[Na+] | 1
CCOP(=O)(OCC)OC1=C(C(=O)[O-])N2C(=O)[C@@H](NC(=O)COc3ccccc3)[C@H]2CC1.[Na+] | 1
N[C@@H](C(=O)N[C@@H]1C(=O)N2C(C(=O)O)=C(Cl)CC[C@H]12)c1ccccc1 [LORACARBEF ANHYDROUS] | 2

Please look at the following molecule next.
Prompt: Consider the molecule shown here: COP(=O)(OC)OC1=C(C(=O)[O-])N2C(=O)[C@@H](NC(=O)COc3ccccc3)[C@H]2CC1.[Na+] What is its recorded MIC?
Response: 1
